- Test system: 22RV1 (Prostate Carcinoma)
- ASSAY COMMENT: Bliss excess, mean over the matrix (fraction); higher = more synergy;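 also: after 72 h of two-drug dosing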
VALUE TYPE: Bliss excess

1) COc1cccc(OCCCN)c1-c1cc(Nc2cnc(C#N)cn2)n[nH]1 [Prexasertib] + CCc1c2c(nc3ccc(O)cc13)-c1cc3c(c(=O)n1C2)COC(=O)[C@]3(O)CC [SN-38] (first compound max 1 µM, 7x7, partner max 0.3 µM)	-0.0649
2) Cc1c2c(nn1C)CSCc1cc(n(C)n1)CSc1cc(c3ccccc3c1)OCCCc1c(C(=O)O)n(C)c3c-2c(Cl)ccc13 [AZD5991] + Nc1ccn([C@@H]2O[C@H](CO)[C@@H](O)C2(F)F)c(=O)n1 [Gemcitabine] (first compound max 1 µM, 7x7, partner max 0.3 µM)	-0.02
3) Cc1nc(-c2cn3c(n2)-c2ccc(-c4cnn(C(C)(C)C(N)=O)c4)cc2OCC3)n(C(C)C)n1 [Taselisib] + O=C(Nc1ccc2[nH]nc(-c3ccncc3)c2c1)[C@@H]1CCN(CC(=O)N2CCN(c3ccc(-c4ncccn4)cc3)CC2)C1 [SCH772984] (first compound max 10 µM, 7x7, partner max 5 µM)	0.0502

Please provide the recorded Bliss excess for COc1cccc(OCCCN)c1-c1cc(Nc2cnc(C#N)cn2)n[nH]1 [Prexasertib] + O=C(c1cc(Cc2n[nH]c(=O)c3ccccc23)ccc1F)N1CCN(C(=O)C2CC2)CC1 [Olaparib] (first compound max 1 µM, 7x7, partner max 10 µM) , tested on 22RV1 (Prostate Carcinoma).
-0.072

---

- Test system: OACp4C (Esophageal Adenocarcinoma)
- ASSAY COMMENT: Bliss excess, mean over the matrix (fraction); higher = more synergy
VALUE TYPE: Bliss excess
Answer field: number only, no words.

// known answers, use as guide
1) Cc1c2c(nn1C)CSCc1cc(n(C)n1)CSc1cc(c3ccccc3c1)OCCCc1c(C(=O)O)n(C)c3c-2c(Cl)ccc13 [AZD5991] + CC1(C)CCC(CN2CCN(c3ccc(C(=O)NS(=O)(=O)c4ccc(NCC5CCOCC5)c([N+](=O)[O-])c4)c(Oc4cnc5[nH]ccc5c4)c3)CC2)=C(c2ccc(Cl)cc2)C1 [Venetoclax] (first compound max 1 µM, 7x7, partner max 1 µM)	0.13
2) Cc1cc2ncnn2cc1Nc1ncc2c(n1)n(C1CCOCC1)c(=O)n2C [AZD7648] + C[C@@H]1COCCN1C2=NC(=NC(=C2)C3(CC3)[S@](=N)(=O)C)C4=C5C=CNC5=NC=C4 [AZD6738] (first compound max 10 µM, 7x7, partner max 10 µM)	-0.0284
3) COc1nnc2ccc(N3CCC(c4ccc(OCCN5CCN(C)C(=O)[C@H]5C)cc4)CC3)nn12 [AZD5153] + CCN(CCO)CCCOc1ccc2c(Nc3cc(CC(=O)Nc4cccc(F)c4)[nH]n3)ncnc2c1 [AZD2811] (first compound max 1 µM, 7x7, partner max 1 µM)	-0.062

Reported Bliss excess for CN(C)CCCOc1ccc(-c2ccc3ncc4c(c3c2)n(C2CCOCC2)c(=O)n4C)cn1 [AZD0156] + C[C@@H]1COCCN1C2=NC(=NC(=C2)C3(CC3)[S@](=N)(=O)C)C4=C5C=CNC5=NC=C4 [AZD6738] (first compound max 1 µM, 7x7, partner max 10 µM) : what is it?
0.0169

Now give it for C=CCn1c(=O)c2cnc(Nc3ccc(N4CCN(C)CC4)cc3)nc2n1-c1cccc(C(C)(C)O)n1 [AZD1775] + C[C@@H]1COCCN1C2=NC(=NC(=C2)C3(CC3)[S@](=N)(=O)C)C4=C5C=CNC5=NC=C4 [AZD6738] (first compound max 1 µM, partner max 10 µM) too.
-0.028

Now give it for Cn1cnc2c(F)c(Nc3ccc(Br)cc3Cl)c(C(=O)NOCCO)cc21 [Selumetinib] + C=CCn1c(=O)c2cnc(Nc3ccc(N4CCN(C)CC4)cc3)nc2n1-c1cccc(C(C)(C)O)n1 [AZD1775] (first compound max 10 µM, partner max 1 µM) too.
-0.0357

Now give it for COc1cccc(OCCCN)c1-c1cc(Nc2cnc(C#N)cn2)n[nH]1 [Prexasertib] + CN(C)CCCOc1ccc(-c2ccc3ncc4c(c3c2)n(C2CCOCC2)c(=O)n4C)cn1 [AZD0156] (first compound max 1 µM, 7x7, partner max 1 µM) too.
-0.0162

---

- Test system: ESO26 (Esophageal Adenocarcinoma)
- ASSAY COMMENT: Bliss excess, mean over the matrix (fraction); higher = more synergy
Rule: Bliss excess of -0.04 or more gives true; anything lower gives false.

# example entries with known answers
1. COc1cc2c(cc1OCCCCCOc1cc3c(cc1OC)C(=O)N1C=C(C)C[C@H]1C=N3)N=C[C@@H]1CC(C)=CN1C2=O [SG3199] + O=C(c1cc(Cc2n[nH]c(=O)c3ccccc23)ccc1F)N1CCN(C(=O)C2CC2)CC1 [Olaparib] (first compound max 0.001 µM, 7x7, partner max 10 µM)	true
2. Cc1nc(Nc2ncc(C(=O)Nc3c(C)cccc3Cl)s2)cc(N2CCN(CCO)CC2)n1 [Dasatinib] + CC(=O)Nc1cccc(-n2c(=O)n(C3CC3)c(=O)c3c(Nc4ccc(I)cc4F)n(C)c(=O)c(C)c32)c1 [Trametinib] (first compound max 2 µM, 7x7, partner max 1 µM)	false
3. CC1(C)CCC(CN2CCN(c3ccc(C(=O)NS(=O)(=O)c4ccc(NCC5CCOCC5)c([N+](=O)[O-])c4)c(Oc4cnc5[nH]ccc5c4)c3)CC2)=C(c2ccc(Cl)cc2)C1 [Venetoclax] + C=CCn1c(=O)c2cnc(Nc3ccc(N4CCN(C)CC4)cc3)nc2n1-c1cccc(C(C)(C)O)n1 [AZD1775] (first compound max 1 µM, partner max 1 µM)	true
4. CN(CCO)CC[C@H](CSc1ccccc1)Nc1ccc(S(=O)(=O)NC(=O)c2ccc(N3CCC([C@@H](O)c4ccccc4-c4ccc(Cl)cc4)CC3)cc2)cc1S(=O)(=O)C(F)(F)F [AZD4320] + CN(C)CCCOc1ccc(-c2ccc3ncc4c(c3c2)n(C2CCOCC2)c(=O)n4C)cn1 [AZD0156] (first compound max 1 µM, 7x7, partner max 1 µM)	true
5. Cc1c2c(nn1C)CSCc1cc(n(C)n1)CSc1cc(c3ccccc3c1)OCCCc1c(C(=O)O)n(C)c3c-2c(Cl)ccc13 [AZD5991] + C1CN(CCC1(C(=O)N[C@@H](CCO)C2=CC=C(C=C2)Cl)N)C3=NC=NC4=C3C=CN4 [Capivasertib] (first compound max 1 µM, 7x7, partner max 3 µM)	true
6. COc1cccc(OCCCN)c1-c1cc(Nc2cnc(C#N)cn2)n[nH]1 [Prexasertib] + Cc1cc2ncnn2cc1Nc1ncc2c(n1)n(C1CCOCC1)c(=O)n2C [AZD7648] (first compound max 1 µM, 7x7, partner max 10 µM)	true
7. CCc1c2c(nc3ccc(O)cc13)-c1cc3c(c(=O)n1C2)COC(=O)[C@]3(O)CC [SN-38] + CN(C)CCCOc1ccc(-c2ccc3ncc4c(c3c2)n(C2CCOCC2)c(=O)n4C)cn1 [AZD0156] (first compound max 0.3 µM, 7x7, partner max 1 µM)	true
8. CN(CCO)CC[C@H](CSc1ccccc1)Nc1ccc(S(=O)(=O)NC(=O)c2ccc(N3CCC([C@@H](O)c4ccccc4-c4ccc(Cl)cc4)CC3)cc2)cc1S(=O)(=O)C(F)(F)F [AZD4320] + Cc1cc2ncnn2cc1Nc1ncc2c(n1)n(C1CCOCC1)c(=O)n2C [AZD7648] (first compound max 1 µM, 7x7, partner max 10 µM)	true

Is Bliss excess at least -0.04? Consider Cn1cnc2c(F)c(Nc3ccc(Br)cc3Cl)c(C(=O)NOCCO)cc21 [Selumetinib] + CCN(CCO)CCCOc1ccc2c(Nc3cc(CC(=O)Nc4cccc(F)c4)[nH]n3)ncnc2c1 [AZD2811] (first compound max 10 µM, 7x7, partner max 1 µM)
true

Now give it for Cc1cc2ncnn2cc1Nc1ncc2c(n1)n(C1CCOCC1)c(=O)n2C [AZD7648] + C=CCn1c(=O)c2cnc(Nc3ccc(N4CCN(C)CC4)cc3)nc2n1-c1cccc(C(C)(C)O)n1 [AZD1775] (first compound max 10 µM, partner max 1 µM) too.
false

Now give it for C[C@@H](c1ccc2nccn2c1)n1nnc2ncc(-c3cnn(C)c3)nc21 [Savolitinib] + CN(CC[C@H](CSC1=CC=CC=C1)NC2=C(C=C(C=C2)S(=O)(=O)NC(=O)C3=CC=C(C=C3)N4CCC(CC4)[C@H](C5=CC=CC=C5C6=CC=C(C=C6)Cl)O)S(=O)(=O)C(F)(F)F)CCO [AZD4320] (first compound max 1 µM, 7x7, partner max 1 µM) too.
false

Now give it for COc1nnc2ccc(N3CCC(c4ccc(OCCN5CCN(C)C(=O)[C@H]5C)cc4)CC3)nn12 [AZD5153] + Cc1c2c(nn1C)CSCc1cc(n(C)n1)CSc1cc(c3ccccc3c1)OCCCc1c(C(=O)O)n(C)c3c-2c(Cl)ccc13 [AZD5991] (first compound max 1 µM, 7x7, partner max 1 µM) too.
true
